Tested on: CCRIS mutagenicity, Ames/micronucleus/aberration tests
experiment: CCRIS mutagenicity studies
study_conditions: Test System: AMES SALMONELLA TYPHIMURIUM; Strain/Indicator: TA1535; Metabolic Activation: RAT, LIVER, S-9, AROCLOR 1254 (10%); Method: PREINCUBATION
Active and inactive are the calls of the source. No rule for the calls is given here.
One label from this list, please: TRUE for active, FALSE for inactive

// known answers, use as guide
compound	classification
CCCCC(CC)COC(=O)c1ccccc1C(=O)O (stereo unspecified)	FALSE
CC(=O)/C(C)=N/O	FALSE
COC(=O)c1ccc(C)cc1	FALSE
C/C(C=O)=C\c1ccccc1	FALSE
CC(C)CC(C)Nc1ccc(Nc2ccccc2)cc1 (stereo unspecified)	FALSE
Nc1ccc(O)c([N+](=O)[O-])c1	FALSE

-- ask So what was the verdict on "Cc1ccc(C)o1" in this test?
-- reply FALSE

-- ask So what was the verdict on "Cc1ccccc1Br" in this test?
-- reply FALSE

-- ask So what was the verdict on C=CC1CO1 (stereo unspecified) in this test?
-- reply TRUE

-- ask So what was the verdict on CC(CC(=O)O)C(=O)O (stereo unspecified) in this test?
-- reply FALSE
